# maps each entry to its viability at 24 h, 20 µM
assay: Cytotoxicity against mouse RAW264.7 cells assessed as survival rate at 20 uM incubated for 24 hrs by CCK-8 assay relative to control (reference value: 100 %); type: toxicity, cell-based; conditions: read-out: Survival

- SMILES_RECORD: "COc1ccc(CNC(=O)[C@@H](Cc2cc(OC)c(O)c(OC)c2)[C@@H](Cc2cc(OC)c(O)c(OC)c2)C(=O)NCc2ccc(OC)cc2OC)c(OC)c1"
  viability at 24 h, 20 µM (%): 98.4
- SMILES_RECORD: "COc1cc(C[C@H](C(=O)NCc2cccc(F)c2)[C@@H](Cc2cc(OC)c(O)c(OC)c2)C(=O)NCc2cccc(F)c2)cc(OC)c1O"
  viability at 24 h, 20 µM (%): 99.4
- SMILES_RECORD: "COc1cc(C[C@H](C(=O)NCc2ccncc2)[C@@H](Cc2cc(OC)c(O)c(OC)c2)C(=O)NCc2ccncc2)cc(OC)c1O"
  viability at 24 h, 20 µM (%): 69.5
- SMILES_RECORD: "COc1cc(C[C@H](C(=O)NCc2ccccc2F)[C@@H](Cc2cc(OC)c(O)c(OC)c2)C(=O)NCc2ccccc2F)cc(OC)c1O"
  viability at 24 h, 20 µM (%): 105

Data origin, for the record: ChEMBL document CHEMBL5532759
